// provenance: patent US20250250357A1

Field: OD450. Provide a value for each of the binders that follow.
target: T1, human MSLN-R3-3 polypeptide (human); assay: ELISA, coated antigen, antibody 0.0001 nM
T1 construct: Part of region R3 of human MSLN; also called hMSLN-R3-3; human MSLN-R3-3 protein
Respond numerically, and do not add a unit to the figure.

# input For S009-F4-94.15 chimeric antibody (antibody, human IgG1, kappa, V domains shown, Human-murine chimeric antibody: murine VH/VL on human IgG1 heavy and kappa light constant regions) VH: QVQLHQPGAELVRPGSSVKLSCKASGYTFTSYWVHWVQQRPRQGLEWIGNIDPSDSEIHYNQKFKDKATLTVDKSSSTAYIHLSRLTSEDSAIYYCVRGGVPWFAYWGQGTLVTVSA VL: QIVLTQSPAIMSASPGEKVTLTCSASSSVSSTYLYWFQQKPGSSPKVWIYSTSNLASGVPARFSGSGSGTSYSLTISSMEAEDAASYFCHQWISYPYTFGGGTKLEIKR , write its OD450.
# output 0.06

# input For S009-F6-62.5 chimeric antibody (antibody, human IgG1, kappa, V domains shown, Human-murine chimeric antibody, human IgG1/kappa constant regions) VH: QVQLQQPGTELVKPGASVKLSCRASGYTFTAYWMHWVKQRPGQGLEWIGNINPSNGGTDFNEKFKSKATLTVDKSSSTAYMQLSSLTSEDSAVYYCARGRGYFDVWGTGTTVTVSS VL: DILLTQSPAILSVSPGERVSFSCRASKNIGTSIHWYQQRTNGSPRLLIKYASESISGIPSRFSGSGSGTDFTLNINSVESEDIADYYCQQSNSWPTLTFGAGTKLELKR , write its OD450.
# output 0.04

# input For S009-F4-127.10 chimeric antibody (antibody, human IgG1, kappa, V domains shown, Human-murine chimeric antibody, human IgG1/kappa constant regions) VH: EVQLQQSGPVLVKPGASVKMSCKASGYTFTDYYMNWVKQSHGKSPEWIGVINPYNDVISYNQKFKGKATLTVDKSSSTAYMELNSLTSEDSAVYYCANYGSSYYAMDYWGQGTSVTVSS VL: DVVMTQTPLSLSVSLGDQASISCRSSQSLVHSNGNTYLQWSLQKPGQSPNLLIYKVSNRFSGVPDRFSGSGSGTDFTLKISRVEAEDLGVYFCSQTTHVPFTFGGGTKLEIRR , write its OD450.
# output 0.06

# input For S009-F5-9.16 chimeric antibody (antibody, human IgG1, kappa, V domains shown, Human-murine chimeric antibody, human IgG1/kappa constant regions) VH: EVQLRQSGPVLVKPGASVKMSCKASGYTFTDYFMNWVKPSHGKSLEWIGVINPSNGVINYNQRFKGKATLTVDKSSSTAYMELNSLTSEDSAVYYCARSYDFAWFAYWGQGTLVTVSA VL: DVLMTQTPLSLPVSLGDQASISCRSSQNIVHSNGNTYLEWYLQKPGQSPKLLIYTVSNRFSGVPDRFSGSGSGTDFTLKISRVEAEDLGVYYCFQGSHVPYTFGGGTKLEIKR , write its OD450.
# output 0.05

# input For S009-F6-76.1 chimeric antibody (antibody, human IgG1, kappa, V domains shown, Human-murine chimeric antibody, human IgG1/kappa constant regions) VH: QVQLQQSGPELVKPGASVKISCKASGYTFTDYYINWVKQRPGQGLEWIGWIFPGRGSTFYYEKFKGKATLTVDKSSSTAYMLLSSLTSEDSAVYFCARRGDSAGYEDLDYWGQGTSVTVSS VL: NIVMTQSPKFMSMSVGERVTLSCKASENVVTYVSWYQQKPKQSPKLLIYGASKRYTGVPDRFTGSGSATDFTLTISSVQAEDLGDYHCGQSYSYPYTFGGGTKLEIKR , write its OD450.
# output 0.05
